Test system: Triple negative breast cancer cell line CAL51
Assay: Cell Titer Glo proliferation assay, CAL51
Assay type: cell-based
Settings: Homo sapiens, CAL-51; CAL51 cell proliferation, Cell Titer Glo; read-out: Act. Level
The compounds listed here are annotated with their IC50.

{"compound": "CNC(=O)c1ccc(-c2c[nH]c3nc(Nc4ccc(C(=O)NC5COC5)cc4OC)nc(OC4CCC(C)(O)CC4)c23)cc1 (centres unmarked)", "IC50": "< 100 nM"}
{"compound": "CNC(=O)c1ccc(-c2c[nH]c3nc(Nc4ccc(C(=O)NC5CN(C)C5)cc4OC)nc(OC4CCC4)c23)cc1", "IC50": "100 to 400 nM"}
{"compound": "CNC(=O)c1ccc(-c2c[nH]c3nc(Nc4ccc(C(=O)NC5CN(C)C5)cc4OC)nc(OC(C)C)c23)cc1", "IC50": "< 100 nM"}
{"compound": "COc1cc(C(=O)NC2CN(C)C2)ccc1Nc1nc(OC2CCOCC2)c2c(-c3ccc4nc(C)oc4c3)c[nH]c2n1", "IC50": "100 to 400 nM"}
{"compound": "COc1nc(Nc2ccc(C(=O)N(C)C)cc2C)nc2[nH]cc(-c3cnn(C)c3)c12", "IC50": "400 to 1000 nM"}
{"compound": "CNC(=O)c1ccc(Nc2nc(OC)c3c(-c4ccc5c(C)noc5c4)c[nH]c3n2)c(OC)c1", "IC50": "100 to 400 nM"}
{"compound": "COc1cc(C(=O)N2CC2)ccc1Nc1nc(OC)c2c(-c3ccncc3)c[nH]c2n1", "IC50": "400 to 1000 nM"}
{"compound": "Cc1nc2ccc(-c3c[nH]c4nc(Nc5cnn(C(C)C)c5Cl)nc(OC5CCCC5)c34)cc2o1", "IC50": "100 to 400 nM"}
{"compound": "COc1cc(C(=O)NC2COC2)ccc1Nc1nc(OC)c2c(-c3ccnc(F)c3)c[nH]c2n1", "IC50": "100 to 400 nM"}
{"compound": "CNC(=O)c1ccc(-c2c[nH]c3nc(Nc4ccc(C(=O)NCCO)cc4OC)nc(OC4CCC4)c23)cc1", "IC50": "100 to 400 nM"}
{"compound": "COc1cc(C(=O)NC2COC2)ccc1Nc1nc(OC)c2c(-c3cc(C)nc(C)c3)c[nH]c2n1", "IC50": "< 100 nM"}
{"compound": "COc1cc(C(=O)NC2COC2)ccc1Nc1nc(OC)c2c(-c3cn(C)nc3C)c[nH]c2n1", "IC50": "1000 to 10000 nM"}
{"compound": "CNC(=O)c1ccc(-c2c[nH]c3nc(Nc4ccc(C(=O)NC5COC5)cc4C)nc(OC4CCC4)c23)cc1", "IC50": "< 100 nM"}
{"compound": "Cc1nc2ccc(-c3c[nH]c4nc(Nc5cnn(C6CCOCC6)c5Cl)nc(OC5CCCC5)c34)cc2o1", "IC50": "< 100 nM"}
{"compound": "COc1cc(C(=O)NC2COC2)ccc1Nc1nc(OC2CCOCC2)c2c(-c3ccc4nc(C)oc4c3)c[nH]c2n1", "IC50": "< 100 nM"}
{"compound": "CNC(=O)c1ccc(-c2c[nH]c3nc(Nc4ccc(C(=O)NC5COC5)cc4OC)nc(O[C@H]4CCOC4)c23)cc1", "IC50": "< 100 nM"}
{"compound": "COc1cc(C(=O)NC2CN(C)C2)ccc1Nc1nc(OC2CCCC2)c2c(-c3ccc(-c4ncc[nH]4)cc3)c[nH]c2n1", "IC50": "100 to 400 nM"}
{"compound": "CNC(=O)c1ccc(-c2c[nH]c3nc(Nc4ccc(C(=O)N5CC5)cc4OC)nc(O[C@H]4CC[C@@](C)(O)CC4)c23)cc1", "IC50": "< 100 nM"}
{"compound": "COc1cc(C(=O)NC2COC2)ccc1Nc1nc(OC)c2c(-c3ccnc(Cl)c3)c[nH]c2n1", "IC50": "100 to 400 nM"}
{"compound": "COc1cc(C(=O)NC2CN(C)C2)ccc1Nc1nc(OC2CCC(C)(O)CC2)c2c(-c3ccc4nc(C)oc4c3)c[nH]c2n1 (centres unmarked)", "IC50": "100 to 400 nM"}
{"compound": "CNC(=O)c1ccc(Nc2nc(O[C@H]3CCOC3)c3c(-c4cnn(C)c4)c[nH]c3n2)c(OC)c1", "IC50": "< 100 nM"}
{"compound": "CNC(=O)c1ccc(-c2c[nH]c3nc(Nc4ccc(C(=O)NC5COC5)cc4Cl)nc(OC4CCC4)c23)cc1", "IC50": "< 100 nM"}
{"compound": "CNC(=O)c1ccc(-c2c[nH]c3nc(Nc4ccc(C(=O)NC5COC5)cc4OC)nc(OC4CCC4)c23)cc1F", "IC50": "1000 to 10000 nM"}
{"compound": "COc1cc(C(=O)NC2COC2)ccc1Nc1nc(OC(C)C)c2c(-c3ccc4nc(C)oc4c3)c[nH]c2n1", "IC50": "100 to 400 nM"}
{"compound": "COc1cc(C(=O)NC2COC2)ccc1Nc1nc(OC)c2c(-c3ccc4c(C)noc4c3)c[nH]c2n1", "IC50": "100 to 400 nM"}
{"compound": "CNC(=O)c1ccc(-c2c[nH]c3nc(Nc4ccc(C(=O)NC5COC5)cc4OC)nc(OC4CC4)c23)cc1", "IC50": "100 to 400 nM"}
{"compound": "CNC(=O)c1ccc(Nc2nc(OC3CCC(C)(O)CC3)c3c(-c4ccc5nc(C)oc5c4)c[nH]c3n2)c(OC)c1 (centres unmarked)", "IC50": "< 100 nM"}
{"compound": "COc1ccc(-c2c[nH]c3nc(Nc4ccc(C(=O)N(C)C)cc4C)nc(OC)c23)cc1", "IC50": "100 to 400 nM"}
{"compound": "COc1cc(C(=O)NC2COC2)ccc1Nc1nc(OC)c2c(-c3ccncn3)c[nH]c2n1", "IC50": "1000 to 10000 nM"}

* * *

Tested on: Triple negative breast cancer cell line CAL51
Assay: Cell Titer Glo proliferation assay, CAL51
Assay type: cell-based
Conditions: Homo sapiens, CAL-51; CAL51 cell proliferation, Cell Titer Glo; read-out: Act. Level
The compounds listed here are annotated with their IC50.

{"compound": "CNC(=O)c1ccc(-c2c[nH]c3nc(Nc4ccc(C(=O)NC5COC5)cc4OC)nc(OC4CC(C#N)C4)c23)cc1 (centres unmarked)", "IC50": "< 100 nM"}
{"compound": "COc1nc(Nc2ccc(C(=O)N(C)C)cc2C)nc2[nH]cc(-c3ccc(F)cc3)c12", "IC50": "1000 to 10000 nM"}
{"compound": "COc1nc(Nc2ccc(C(=O)NC3COC3)cc2C)nc2[nH]cc(-c3ccncc3)c12", "IC50": "100 to 400 nM"}
{"compound": "COc1cc(C(=O)N2CC2C)ccc1Nc1nc(OC2CCCC2)c2c(-c3ccc4nc(C)oc4c3)c[nH]c2n1 (centres unmarked)", "IC50": "400 to 1000 nM"}
{"compound": "COc1nc(Nc2cn(C)nc2C)nc2[nH]cc(-c3ccncc3)c12", "IC50": "100 to 400 nM"}

* * *

System: Triple negative breast cancer cell line CAL51
Assay: Cell Titer Glo proliferation assay, CAL51
Format: cell-based
Details: Homo sapiens, CAL-51; CAL51 cell proliferation, Cell Titer Glo; read-out: Act. Level
Description: Cell Titer Glo Proliferation Assay. Triple negative breast cancer cell line CAL51 was purchased from DSMZ. […] Allcell lines were maintained in growth media consisting of 90% high glucose Dulbecco's Modified Eagle Medium or RPMI1640 (Invitrogen), 10% fetal bovine serum (Hyclone), and 2 mM L-glutamine (Invitrogen). […] After 10 minutes incubation, the luminescence signal was detected with Envision microplate reader (Perkin Elmer).
The compounds listed here are annotated with their IC50.

{"molecule": "COc1cc(C(=O)NC2CN(C)C2)ccc1Nc1nc(OC2CC2)c2c(-c3ccc4nc(C)oc4c3)c[nH]c2n1", "IC50": "< 100 nM"}
{"molecule": "CNC(=O)c1ccc(Nc2nc(OC3CCCC3)c3c(-c4cccc(O)c4)c[nH]c3n2)c(OC)c1", "IC50": "< 100 nM"}
{"molecule": "CNC(=O)c1ccc(Nc2nc(OC3CCCC3)c3c(-c4c(C)noc4C)c[nH]c3n2)c(OC)c1", "IC50": "1000 to 10000 nM"}
{"molecule": "CNC(=O)c1ccc(-c2c[nH]c3nc(Nc4ccc(C(=O)NC5COC5)cc4OC)nc(OC4CC(F)(F)C4)c23)cc1", "IC50": "< 100 nM"}
{"molecule": "COc1cc(C(=O)N2C[C@@H]2CO)ccc1Nc1nc(OC2CCCC2)c2c(-c3ccc4nc(C)oc4c3)c[nH]c2n1", "IC50": "100 to 400 nM"}
{"molecule": "CNC(=O)c1ccc(Nc2nc(OC3CCCC3)c3c(-c4cccc(N(C)C)c4)c[nH]c3n2)c(OC)c1", "IC50": "400 to 1000 nM"}
{"molecule": "CNC(=O)c1ccc(-c2c[nH]c3nc(Nc4ccc(C(=O)NC5CN(C)C5)cc4OC)nc(OC4CCOCC4)c23)cc1", "IC50": "100 to 400 nM"}
